system: Liver microsome; assay: Intrinsic clearance in Wistar rat liver microsomes measured per gram of tissue at 2.5 uM; assay type: ADME
Lab note: anything with CLH below 2 mL/min/g is marked t; values at 2 mL/min/g or higher are marked f.

Worked cases, answers included:
O=S(=O)(c1ccc(Cl)cc1)c1sc2ncc(F)cc2c1-c1ccc(Cl)cc1    t
N#Cc1cc(F)cc(S(=O)(=O)c2sc3ncc(N)cc3c2-c2ccc(Cl)cc2)c1    t
CS(=O)(=O)c1ccc(-c2c(S(=O)(=O)c3ccc(Cl)cc3)sc3ncccc23)cc1    f
O=S(=O)(c1ccc(Cl)cc1)c1sc2ncccc2c1-c1cccc(F)c1    f
N#Cc1cccc(S(=O)(=O)c2sc3ncc(N)cc3c2-c2cccc(F)c2)c1    t
N#Cc1cccc(-c2c(S(=O)(=O)c3cccc(C#N)c3)sc3ncccc23)c1    f

Prompt: Hello, is CLH of the following molecule strictly smaller than 2 mL/min/g? `N#Cc1cccc(S(=O)(=O)c2sc3ncccc3c2-c2ccccc2Cl)c1`
Response: f

Prompt: Hello, is CLH of the following molecule strictly smaller than 2 mL/min/g? `CN(C)c1ccnc2sc(S(=O)(=O)c3ccc(Cl)cc3)c(-c3ccc(Cl)cc3)c12`
Response: f

Prompt: Hello, is CLH of the following molecule strictly smaller than 2 mL/min/g? `O=S(=O)(c1ccc(Cl)cc1)c1sc2ncccc2c1-c1cnccc1F`
Response: f

Prompt: Hello, is CLH of the following molecule strictly smaller than 2 mL/min/g? `N#Cc1cccc(S(=O)(=O)c2sc3ncc(N)cc3c2-c2ccccc2F)c1`
Response: f

----------
test system: Liver microsome; test: Intrinsic clearance in Wistar rat liver microsomes measured per gram of tissue at 2.5 uM; assay type: ADME
Everything with CLH lower than 2 mL/min/g is Criterion not met; everything else, including exactly 2 mL/min/g, is Criterion met.

N#Cc1cc(F)cc(S(=O)(=O)c2sc3ncccc3c2-c2ccc(F)cc2)c1    Criterion met

Prompt: Is the recorded value of CLH equal to or greater than 2 mL/min/g for this compound? `O=S(=O)(c1ccc(Cl)cc1)c1sc2nccc(O)c2c1-c1ccc(Cl)cc1`
Response: Criterion not met

----------
tested on: Liver microsome; experiment: Intrinsic clearance in human liver microsomes measured per gram of tissue at 2.5 uM; assay type: ADME
Binned CLH; ranges: group 1: < 0.9 mL/min/g; group 2: ≥ 0.9 mL/min/g and < 2 mL/min/g; group 3: ≥ 2 mL/min/g

Worked cases, answers included:
O=S(=O)(c1ccc(Cl)cc1)c1sc2ncccc2c1-c1ccccc1Cl    group 3
Nc1cnc2sc(S(=O)(=O)c3ccc(Cl)cc3)c(-c3cccc(F)c3)c2c1    group 2

Could you now consider this next compound?
Prompt: Exercise: read the entry `N#Cc1cccc(S(=O)(=O)c2sc3ncc(N)cc3c2-c2cccc(F)c2)c1` and state which class it falls under.
Response: group 1

----------
test system: Liver microsome; assay: Intrinsic clearance in human liver microsomes measured per gram of tissue at 2.5 uM; type: ADME
The reader will find reported CLH values listed item by item below.
Report as a plain number; the unit mL/min/g is understood.

CS(=O)(=O)c1ccc(-c2c(S(=O)(=O)c3ccc(Cl)cc3)sc3ncccc23)cc1    0.4
N#Cc1cc(F)cc(S(=O)(=O)c2sc3ncccc3c2-c2ccoc2)c1    3.7
N#Cc1cc(F)cc(S(=O)(=O)c2sc3nc(F)ccc3c2-c2ccc(F)cc2)c1    3.5
N#Cc1cccc(S(=O)(=O)c2sc3nc(O)ccc3c2-c2ccc(Cl)cc2)c1    0.4
CN(C)c1ccnc2sc(S(=O)(=O)c3ccc(Cl)cc3)c(-c3ccc(Cl)cc3)c12    3.8
N#Cc1cc(F)cc(S(=O)(=O)c2sc3ncc(N)cc3c2-c2cccc(F)c2)c1    0.9
N#Cc1cccc(S(=O)(=O)c2sc3ncccc3c2-c2cccc(F)c2)c1    1.9
O=S(=O)(c1ccc(Cl)cc1)c1sc2nccc(F)c2c1-c1ccc(Cl)cc1    3.6
Nc1cnc2sc(S(=O)(=O)c3ccc(Cl)cc3)c(-c3ccccc3F)c2c1    1.9

Pending compound:
Prompt: What value of CLH on Liver microsome does `COc1ccc2c(-c3ccc(Cl)cc3)c(S(=O)(=O)c3ccc(Cl)cc3)sc2n1` have?
Response: 0.01

----------
biological target: UniProtKB P31424
pKi: −log10 of the molar value.
Everything with pKi lower than 7 is No; everything else, including exactly 7, is Yes.

Worked cases, answers included:
N#Cc1cc(F)cc(S(=O)(=O)c2sc3ncc(N)cc3c2-c2ccccc2F)c1    Yes
N#Cc1cc(F)cc(S(=O)(=O)c2sc3ncc(N)cc3c2-c2ccncc2F)c1    Yes
Cc1cc(C)cc(S(=O)(=O)c2sc3ncccc3c2-c2ccc(Cl)cc2)c1    Yes
CN(C)c1ccnc2sc(S(=O)(=O)c3ccc(Cl)cc3)c(-c3ccc(Cl)cc3)c12    Yes
N#Cc1cccc(S(=O)(=O)c2sc3nc(F)ccc3c2-c2ccc(Cl)cc2)c1    Yes

Prompt: Is the recorded value of pKi equal to or greater than 7 for this compound? `COc1ccc2c(-c3ccc(Cl)cc3)c(S(=O)(=O)c3ccc(Cl)cc3)sc2n1`
Response: No

----------
Consider the following Ki values measured on Metabotropic glutamate receptor 5 (Rattus norvegicus, UniProt P31424).
Sequence (P31424 whole entry): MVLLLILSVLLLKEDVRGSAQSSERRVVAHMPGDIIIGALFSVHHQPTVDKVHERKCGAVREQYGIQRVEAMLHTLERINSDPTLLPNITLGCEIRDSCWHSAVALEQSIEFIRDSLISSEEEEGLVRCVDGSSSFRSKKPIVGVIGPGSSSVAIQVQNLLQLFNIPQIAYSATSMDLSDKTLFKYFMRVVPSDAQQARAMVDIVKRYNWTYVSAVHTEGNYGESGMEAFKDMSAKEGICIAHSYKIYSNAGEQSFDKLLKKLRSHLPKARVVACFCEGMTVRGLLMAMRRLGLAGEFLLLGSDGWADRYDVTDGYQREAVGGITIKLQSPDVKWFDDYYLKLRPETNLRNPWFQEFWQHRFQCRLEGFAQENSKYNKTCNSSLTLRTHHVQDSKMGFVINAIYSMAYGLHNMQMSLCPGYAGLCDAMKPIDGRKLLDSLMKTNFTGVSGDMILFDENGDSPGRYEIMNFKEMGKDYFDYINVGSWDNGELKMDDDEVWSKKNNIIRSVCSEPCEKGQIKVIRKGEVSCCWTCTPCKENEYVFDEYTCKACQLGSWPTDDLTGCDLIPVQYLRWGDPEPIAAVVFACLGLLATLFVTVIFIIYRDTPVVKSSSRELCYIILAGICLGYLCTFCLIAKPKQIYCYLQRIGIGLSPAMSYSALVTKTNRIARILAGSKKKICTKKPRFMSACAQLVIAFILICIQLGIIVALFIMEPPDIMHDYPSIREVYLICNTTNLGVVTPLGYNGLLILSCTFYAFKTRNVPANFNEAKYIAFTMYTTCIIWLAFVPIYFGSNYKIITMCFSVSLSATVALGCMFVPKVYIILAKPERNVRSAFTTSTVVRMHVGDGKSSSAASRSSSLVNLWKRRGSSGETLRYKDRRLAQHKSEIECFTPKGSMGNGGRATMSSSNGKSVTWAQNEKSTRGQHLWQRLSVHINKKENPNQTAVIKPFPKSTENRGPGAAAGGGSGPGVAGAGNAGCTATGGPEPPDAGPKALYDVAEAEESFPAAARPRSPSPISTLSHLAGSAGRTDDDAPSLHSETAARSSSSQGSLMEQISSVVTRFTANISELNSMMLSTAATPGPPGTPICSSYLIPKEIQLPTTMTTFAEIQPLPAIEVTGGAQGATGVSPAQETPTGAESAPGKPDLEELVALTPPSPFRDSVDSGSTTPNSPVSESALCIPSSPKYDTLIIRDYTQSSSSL
Report as a plain number; the unit nM is understood.

Observe how each entry below is paired with its result.
N#Cc1cc(F)cc(S(=O)(=O)c2sc3ncc(N)cc3c2-c2c(F)cncc2F)c1    19
O=S(=O)(c1cccc(C(F)(F)F)c1)c1sc2ncccc2c1-c1ccc(Cl)cc1    54
Nc1cnc2sc(S(=O)(=O)c3ccc(Cl)cc3)c(-c3ccc(Cl)cc3)c2c1    19.1
O=S(=O)(c1cccc(Cl)c1)c1sc2ncccc2c1-c1ccc(Cl)cc1    15.9

Pending molecule:
Prompt: What value of Ki on Metabotropic glutamate receptor 5 (Rattus norvegicus, UniProt P31424) does `O=S(=O)(c1cc(F)cc(C(F)(F)F)c1)c1sc2ncccc2c1-c1ccc(Cl)cc1` have?
Response: 41

----------
system: Liver microsome; test: Intrinsic clearance in Wistar rat liver microsomes measured per gram of tissue at 2.5 uM; assay type: ADME
Lab note: anything with CLH below 2 mL/min/g is marked true; values at 2 mL/min/g or higher are marked false.

Worked cases, answers included:
O=S(=O)(c1ccc(Cl)cc1)c1sc2ncccc2c1-c1ccc(F)cc1F    false
Nc1cnc2sc(S(=O)(=O)c3ccc(Cl)cc3)c(-c3cccc(F)c3)c2c1    true
COc1ccc2c(-c3ccc(Cl)cc3)c(S(=O)(=O)c3cccc(C#N)c3)sc2n1    false
N#Cc1cc(F)cc(S(=O)(=O)c2sc3ncccc3c2-c2ccoc2)c1    false
N#Cc1cc(F)cc(S(=O)(=O)c2sc3ncccc3c2-c2cnccc2F)c1    true
O=S(=O)(c1ccc(Cl)cc1)c1sc2nc(O)ccc2c1-c1ccc(Cl)cc1    true
CS(=O)(=O)Nc1cnc2sc(S(=O)(=O)c3ccc(Cl)cc3)c(-c3ccc(Cl)cc3)c2c1    true
O=S(=O)(c1ccc(Cl)cc1)c1sc2ncccc2c1-c1cccc(Cl)c1    false
O=S(=O)(c1ccc(Cl)cc1)c1sc2ncccc2c1-c1ccc(Cl)c(Cl)c1    false

Prompt: Hello, is CLH of the following compound strictly smaller than 2 mL/min/g? `O=S(=O)(c1ccc(Cl)cc1)c1sc2ncccc2c1-c1ccc(F)cc1`
Response: false

----------
tested on: Liver microsome; test: Intrinsic clearance in Wistar rat liver microsomes measured per gram of tissue at 2.5 uM; assay type: ADME
The reader will find reported CLH values listed item by item below.
Report as a plain number; the unit mL/min/g is understood.

Observe how each entry below is paired with its result.
O=S(=O)(c1ccc(Cl)cc1)c1sc2ncccc2c1-c1ccccc1Cl    3.7
N#Cc1cc(F)cc(S(=O)(=O)c2sc3nc(F)ccc3c2-c2ccc(F)cc2)c1    2
CN(C)c1ccc2c(-c3ccc(Cl)cc3)c(S(=O)(=O)c3ccc(Cl)cc3)sc2n1    3.7
N#Cc1cc(F)cc(S(=O)(=O)c2sc3ncc(N)cc3c2-c2cnccc2Cl)c1    1
N#Cc1cc(F)cc(S(=O)(=O)c2sc3ncc(N)cc3c2-c2cc(F)cc(F)c2)c1    1.04

Pending compound:
Prompt: Using the record for `N#Cc1cc(F)cc(S(=O)(=O)c2sc3ncc(N)cc3c2-c2cccc(F)c2)c1` , report its CLH.
Response: 1.2

----------
biological target: Metabotropic glutamate receptor 5 (Rattus norvegicus); assay: Displacement of [3H]-M-MPEP from rat cerebrocortical mGluR5 receptor at 1 uM
The reader will find reported inhibition values listed item by item below.
Report as a plain number; the unit % is understood.

CCCCS(=O)(=O)c1sc2ncccc2c1-c1ccc(Cl)cc1    30
O=S(=O)(NCc1ccc(Cl)cc1)c1sc2ncccc2c1-c1ccc(Cl)cc1    30
O=S(=O)(c1cccs1)c1sc2ncccc2c1-c1ccc(Cl)cc1    34
CC1CCN(S(=O)(=O)c2sc3ncccc3c2-c2ccc(Cl)cc2)CC1    39
O=S(=O)(c1ccccc1Cl)c1sc2ncccc2c1-c1ccc(Cl)cc1    32

Prompt: Using the record for `CN(C)c1ccc2c(-c3ccc(Cl)cc3)c(S(=O)(=O)c3ccc(Cl)cc3)sc2n1` , report its inhibition.
Response: 2
